FYI, the data here is from patent US12128028B2.

MEASURED_TARGET: human Kv1.3 (Homo sapiens (Human), UniProt P22001)
Sequence (P22001 whole entry): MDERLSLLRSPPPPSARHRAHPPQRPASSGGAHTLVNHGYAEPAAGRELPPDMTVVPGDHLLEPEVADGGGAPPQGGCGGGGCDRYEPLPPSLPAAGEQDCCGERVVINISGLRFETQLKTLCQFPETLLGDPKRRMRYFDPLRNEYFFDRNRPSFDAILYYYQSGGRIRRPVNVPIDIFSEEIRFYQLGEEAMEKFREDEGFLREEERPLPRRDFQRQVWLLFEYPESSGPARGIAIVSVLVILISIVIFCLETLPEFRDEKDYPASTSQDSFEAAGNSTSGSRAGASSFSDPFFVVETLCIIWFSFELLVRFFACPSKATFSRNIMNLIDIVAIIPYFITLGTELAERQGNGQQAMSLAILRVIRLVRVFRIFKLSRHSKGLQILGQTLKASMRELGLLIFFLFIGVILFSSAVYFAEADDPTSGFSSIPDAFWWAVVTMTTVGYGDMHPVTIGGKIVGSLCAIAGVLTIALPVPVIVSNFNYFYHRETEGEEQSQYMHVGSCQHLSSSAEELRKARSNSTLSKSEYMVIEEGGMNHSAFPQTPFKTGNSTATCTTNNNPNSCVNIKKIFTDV
ASSAY_NOTES: Kv1.3 potency evaluation, automated patch clamp electrophysiology (QPatch HT) in CHO-Kv1.3 cells
CONDITIONS_USED: whole-cell QPatch HT, % inhibition of charge, step to +30 mV, four concentrations, N≥3 cells, read-out: hKv1.3 IC50
MEASURED_PARAMETER: IC50 (nM)

a. CC1(C)N=C(C23CC(N(Cc4ccc(Cl)c(F)c4)S(=O)(=O)c4ccccc4)(C2)C3)N[C@H]1C(=O)NC1CCC(F)(F)CC1 (mixture of isomers) [Example 104]
b. CC1N=C(C23CC(N(Cc4ccc(C(F)(F)F)cc4)S(=O)(=O)c4ccc(F)cc4)(C2)C3)N[C@@]1(C)C(=O)NCCC(F)(F)F (mixture of isomers) [Example 211]
For the two items a and b , which reports the higher IC50 value? Label of pick, please.
b

###

MEASURED_TARGET: human Kv1.3 (Homo sapiens (Human))
ASSAY_NOTES: Kv1.3 potency evaluation, automated patch clamp electrophysiology (QPatch HT) in CHO-Kv1.3 cells
CONDITIONS_USED: whole-cell QPatch HT, % inhibition of charge, step to +30 mV, four concentrations, N≥3 cells, read-out: hKv1.3 IC50
pIC50: −log10 of the molar value.
MEASURED_PARAMETER: pIC50

{"COMPOUND": "CC1(C)N=C(C23CC(N(Cc4ccccc4)S(=O)(=O)c4ccccc4)(C2)C3)N[C@H]1C(=O)NCCC(F)(F)F (mixture of isomers)", "ENDPOINT_VALUE": 7.40}

1. CC1(C)N=C(C23CC(N(Cc4ccc(C(F)(F)F)c(F)c4)S(=O)(=O)c4ccccc4)(C2)C3)N[C@H]1C(=O)NCCC(F)(F)F (mixture of isomers)
2. CC1(C)N=C(C23CC(N(Cc4ccc(Cl)c(Cl)c4)S(=O)(=O)c4ccccc4)(C2)C3)N[C@H]1C(=O)N1CCC2(C1)CC(F)(F)C2 (mixture of isomers)
For the two items 1 and 2 , which reports the higher pIC50 value? Label of pick, please.
2
(2: 7.14, 1: 6.90)

###

MEASURED_TARGET: human Kv1.3 (Homo sapiens (Human), UniProt P22001)
ASSAY_NOTES: Kv1.3 potency evaluation, automated patch clamp electrophysiology (QPatch HT) in CHO-Kv1.3 cells
CONDITIONS_USED: whole-cell QPatch HT, % inhibition of charge, step to +30 mV, four concentrations, N≥3 cells, read-out: hKv1.3 IC50
pIC50: −log10 of the molar value.
MEASURED_PARAMETER: pIC50

P. CC1(C)N=C(C23CC(N(Cc4ccc(Cl)c(F)c4)S(=O)(=O)c4ccccc4)(C2)C3)N[C@H]1C(=O)N1CC2(CCC2(F)F)C1 (mixture of isomers)
Q. CC1(C)N=C(C23CC(N(Cc4ccc(Cl)cc4)S(=O)(=O)c4ccccn4)(C2)C3)N[C@H]1C(=O)NCCC(F)(F)F (mixture of isomers)
Min pIC50? P | Q Label of pick, please.
P

###

MEASURED_TARGET: human Kv1.3 (Homo sapiens (Human))
ASSAY_NOTES: Kv1.3 potency evaluation, automated patch clamp electrophysiology (QPatch HT) in CHO-Kv1.3 cells
CONDITIONS_USED: whole-cell QPatch HT, % inhibition of charge, step to +30 mV, four concentrations, N≥3 cells, read-out: hKv1.3 IC50
MEASURED_PARAMETER: IC50 (nM)

{"COMPOUND": "CC1(C)N=C(C23CC(N(Cc4ccc(Cl)cc4)S(=O)(=O)c4ccccc4)(C2)C3)N[C@H]1C(=O)NCC(F)(F)C(F)(F)F (mixture of isomers) [Example 112]", "ENDPOINT_VALUE": 72}

1. CC1(C)N=C(C23CC(N(Cc4ccc(Cl)c(Cl)c4)S(=O)(=O)c4ccccc4)(C2)C3)N[C@H]1C(=O)NC1CC1C(F)(F)F (mixture of isomers) [Example 160]
2. CC1(C)N=C(C23CC(N(Cc4ccc(Cl)cc4)S(=O)(=O)C(C)(C)C)(C2)C3)N[C@H]1C(=O)NCCC(F)(F)F (mixture of isomers) [Example 287]
3. CC1(C)N=C(C23CC(N(Cc4ccc(F)c(F)c4)S(=O)(=O)c4ccccc4)(C2)C3)N[C@H]1C(=O)NCCC(F)(F)F (mixture of isomers) [Example 24]
Hello, I need these entries ordered by IC50, highest reading first. Thanks! To answer, write out the labels according to the requested order.
2, 1, 3

###

MEASURED_TARGET: human Kv1.3 (Homo sapiens (Human), UniProt P22001)
ASSAY_NOTES: Kv1.3 potency evaluation, automated patch clamp electrophysiology (QPatch HT) in CHO-Kv1.3 cells
CONDITIONS_USED: whole-cell QPatch HT, % inhibition of charge, step to +30 mV, four concentrations, N≥3 cells, read-out: hKv1.3 IC50
MEASURED_PARAMETER: IC50 (nM)

Here are 4 compounds together with their reported answers.
{"COMPOUND": "CC1(C)N=C(C23CC(N(Cc4ccc(Cl)c(F)c4)S(=O)(=O)c4ccccc4)(C2)C3)N[C@H]1C(=O)N1CCC(F)(F)C2(CC2)C1 (mixture of isomers) [Example 166]", "RESULT_UNIT": "nM", "ENDPOINT_VALUE": 99}
{"COMPOUND": "CCCS(=O)(=O)N(Cc1ccc(Cl)c(Cl)c1)C12CC(C3=NC(C)(C)[C@H](C(=O)N4CC5CCC(C4)C5(F)F)N3)(C1)C2 (mixture of isomers) [Example 187]", "RESULT_UNIT": "nM", "ENDPOINT_VALUE": 110}
{"COMPOUND": "CC1(C)N=C(C23CC(N(Cc4ccc(Cl)c(Cl)c4)S(=O)(=O)CCCF)(C2)C3)N[C@H]1C(=O)NCCC(F)(F)F (mixture of isomers) [Example 128]", "RESULT_UNIT": "nM", "ENDPOINT_VALUE": 77}
{"COMPOUND": "CC1(C)N=C(C23CC(N(Cc4ccc(Cl)c(F)c4)S(=O)(=O)c4ccccc4)(C2)C3)N[C@H]1C(=O)N1CCCC(F)(F)C1 (mixture of isomers) [Example 98]", "RESULT_UNIT": "nM", "ENDPOINT_VALUE": 66}

A. C[C@H]1CCN(C(=O)[C@@H]2NC(C34CC(N(Cc5ccc(Cl)c(F)c5)S(=O)(=O)c5ccccc5)(C3)C4)=NC2(C)C)C1 (mixture of isomers) [Example 85]
B. O=C(NCC1CCC1)[C@H]1CN=C(C23CC(N(Cc4ccc(C(F)(F)F)cc4)S(=O)(=O)c4ccc(F)cc4)(C2)C3)N1 (mixture of isomers) [Example 209]
C. CC1(C)N=C(C23CC(N(Cc4ccc(Cl)cc4)S(=O)(=O)c4cccc(C(F)(F)F)c4)(C2)C3)N[C@H]1C(=O)NCCC(F)(F)F (mixture of isomers) [Example 152]
List the 3 entries from lowest IC50 to highest IC50 value. To answer, write out the labels according to the requested order.
A, C, B
(A: 62 nM, C: 91 nM, B: 144 nM)

###

MEASURED_TARGET: UniProt P22001
ASSAY_NOTES: Kv1.3 potency evaluation, automated patch clamp electrophysiology (QPatch HT) in CHO-Kv1.3 cells
CONDITIONS_USED: whole-cell QPatch HT, % inhibition of charge, step to +30 mV, four concentrations, N≥3 cells, read-out: hKv1.3 IC50
MEASURED_PARAMETER: IC50 (µM)

{"COMPOUND": "CC1(C)N=C(C23CC(N(Cc4ccc(Cl)c(Cl)c4)S(=O)(=O)CCC(F)F)(C2)C3)N[C@H]1C(=O)NC1CC(C(F)F)C1 (mixture of isomers) [Example 177]", "MEASURED_TARGET": "UniProt P22001", "MEASURED_PARAMETER": "IC50", "ENDPOINT_VALUE": 0.104}

I. CC1(C)N=C(C23CC(N(Cc4ccc(Cl)c(F)c4)S(=O)(=O)c4ccccc4)(C2)C3)N[C@H]1C(=O)NCC(F)(F)F (mixture of isomers)
II. CC1(C)N=C(C23CC(N(Cc4ccc(Cl)cc4)S(=O)(=O)CCCC(F)(F)F)(C2)C3)N[C@H]1C(=O)NCCC(F)(F)F (mixture of isomers)
For the two items I and II , which reports the higher IC50 value? Label of pick, please.
II
(II: 0.137 µM, I: 0.084 µM)

###

MEASURED_TARGET: human Kv1.3 (Homo sapiens (Human), UniProt P22001)
ASSAY_NOTES: Kv1.3 potency evaluation, automated patch clamp electrophysiology (QPatch HT) in CHO-Kv1.3 cells
CONDITIONS_USED: whole-cell QPatch HT, % inhibition of charge, step to +30 mV, four concentrations, N≥3 cells, read-out: hKv1.3 IC50
pIC50: −log10 of the molar value.
MEASURED_PARAMETER: pIC50

{"COMPOUND": "CC1(C)N=C(C23CC(N(Cc4ccc(Cl)cc4)S(=O)(=O)C4CCCC4)(C2)C3)N[C@H]1C(=O)NCCC(F)(F)F (mixture of isomers) [Example 121]", "MEASURED_TARGET": "human Kv1.3 (Homo sapiens (Human), UniProt P22001)", "MEASURED_PARAMETER": "pIC50", "ENDPOINT_VALUE": 7.12}
{"COMPOUND": "CC1(C)N=C(C23CC(N(Cc4ccc(Cl)c(Cl)c4)S(=O)(=O)c4ccccc4)(C2)C3)N[C@H]1C(=O)NC1CC(F)(F)C1 (mixture of isomers) [Example 115]", "MEASURED_TARGET": "human Kv1.3 (Homo sapiens (Human), UniProt P22001)", "MEASURED_PARAMETER": "pIC50", "ENDPOINT_VALUE": 7.14}
{"COMPOUND": "CC1(C)N=C(C23CC(N(Cc4ccc(Cl)c(Cl)c4)S(=O)(=O)c4ccccc4)(C2)C3)N[C@H]1C(=O)NC1CC1C(F)(F)F (mixture of isomers) [Example 189]", "MEASURED_TARGET": "human Kv1.3 (Homo sapiens (Human), UniProt P22001)", "MEASURED_PARAMETER": "pIC50", "ENDPOINT_VALUE": 6.95}
{"COMPOUND": "CC(C)(C)NC(=O)[C@@H]1NC(C23CC(N(Cc4ccc(Cl)c(F)c4)S(=O)(=O)c4ccccc4)(C2)C3)=NC1(C)C (mixture of isomers) [Example 175]", "MEASURED_TARGET": "human Kv1.3 (Homo sapiens (Human), UniProt P22001)", "MEASURED_PARAMETER": "pIC50", "ENDPOINT_VALUE": 6.98}
{"COMPOUND": "CC1(C)N=C(C23CC(N(Cc4ccc(C(F)(F)F)cc4)S(=O)(=O)c4ccc(F)cc4)(C2)C3)NC1C(=O)N1CCCCC1 (centres unmarked) [Example 157]", "MEASURED_TARGET": "human Kv1.3 (Homo sapiens (Human), UniProt P22001)", "MEASURED_PARAMETER": "pIC50", "ENDPOINT_VALUE": 7.03}
